Molecular target: Cyclin-dependent kinase 9 (Homo sapiens, UniProt P50750)
Sequence (P50750 whole entry): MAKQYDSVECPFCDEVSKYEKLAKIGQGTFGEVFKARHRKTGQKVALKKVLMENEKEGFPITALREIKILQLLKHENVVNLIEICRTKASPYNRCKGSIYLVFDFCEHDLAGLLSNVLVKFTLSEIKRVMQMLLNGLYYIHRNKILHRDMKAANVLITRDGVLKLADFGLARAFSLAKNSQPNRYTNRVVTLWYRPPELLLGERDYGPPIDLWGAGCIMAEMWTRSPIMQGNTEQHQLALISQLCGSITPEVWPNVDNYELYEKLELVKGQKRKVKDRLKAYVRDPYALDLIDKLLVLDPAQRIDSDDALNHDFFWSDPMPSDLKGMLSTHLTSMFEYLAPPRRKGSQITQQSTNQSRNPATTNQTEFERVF
Assay: Fluorescent Polarization Assay: The activity of the compounds described in the present invention can be determined by measuring the phosphorylation of a fluorescently-labeled peptide by human CDK9/CyclinT kinase complex by fluorescent polarization using a commercially available IMAP Screening Express Assay Kit (Molecular devices).Test compounds were diluted in 100% DMSO to 5 mM stock concentration, then further dilutions were made in H2O or 100% DMSO to desirable concentrations. Each reaction consisted of 5 nM enzyme: CDK9/CyclinT (Proqinase cat#0371-0345-1), 400 nM TAMRA-Rbtide (synthetic 15-mer peptide derived from human retinoblastoma tumor suppressor protein labeled with TAMRA dye, Genecust Europe), 12 μM ATP (=Kmapp, Sigma-Aldrich) and kinase buffer: 20 mM MOPS pH 7 (Sigma-Aldrich), 1 mM DTT (Sigma-Aldrich), 10 mM MgCl2 (Sigma-Aldrich), 0.01% Tween 20 (Sigma-Aldrich).For each reaction, 4 or 6 μl containing TAMRA-Rbtide, ATP and kianse buffer were combined with 2 μl diluted compound in H2O or 0.028 μl compound in 100% DMSO. The kinase reaction was started by the addition of 2 μl diluted enzyme.
pIC50: −log10 of the molar value.
Documented pIC50 across a set of molecules

COc1ccc(Nc2cc(-c3ccccc3OC)ncn2)cc1NS(C)(=O)=O; > 7.00
COc1ccccc1-c1cc(Nc2ccc(N3CCN(C)CC3)c(CO)c2)ncn1; > 7.00

**Query** Value lookup for pIC50; key = "COc1ccc(Nc2cc(-c3ccccc3OCc3ccccc3)ncn2)cc1[N+](=O)[O-]"
**Result** > 5.00

**Query** Value lookup for pIC50; key = "COc1cccc(-c2cc(Nc3ccc(OC)c([N+](=O)[O-])c3)ncn2)c1"
**Result** < 5.00
